Tested on: SH-SY5Y human neuroblastoma cell line (differentiated phenotype)
Assay: Viability test, salsolinol-induced model of Parkinson's disease in differentiated SH-SY5Y (Calcein AM)
Format: cell-based
Conditions: 0.1 μM compound with 500 μM Salsolinol, 24 h
Method: […] Similarly, to the previous test the assay was performed in 96-well microplates with 7000 SH-SY5Y cells per well. […] After 24 h the cell viability was measured by Calcein AM viability assay.
The following compounds are listed with their measured Neuroprotective effect (% of control) values.
QUANTITY_MEASURED: Neuroprotective effect (% of control)

>>> result("Nc1nc(NCCc2ccc(O)cc2)nc2nc(-c3ccco3)nn12 [ZM241385, reference compound]")
"1.95 % of control"
>>> result("c1ccc(Cn2cnc3c(N4CCOCC4)nc(N4CCOCC4)nc32)cc1")
"1.70 % of control"
>>> result("COc1cccc(Cn2cnc3c(N4CCCC4)nc(N4CCCC4)nc32)c1")
"6.86 % of control"
>>> result("Oc1cccc(Cn2cnc3c(N4CCCC4)nc(N4CCCC4)nc32)c1")
"4.90 % of control"
>>> result("COc1cc2c(cc1OC)C(=O)C(CC1CCN(Cc3ccccc3)CC1)C2 (stereo not drawn) [Donepezil, reference compound]")
"2.76 % of control"
>>> result("c1ccc(Cn2cnc3c(N4CCCC4)nc(N4CCCCC4)nc32)cc1")
"4.64 % of control"
>>> result("Clc1cccc(Cl)c1Cn1cnc2c(N3CCCC3)nc(N3CCCC3)nc21")
"8.57 % of control"
>>> result("CC(=O)N(O)CCCCCNC(=O)CCC(=O)N(O)CCCCCNC(=O)CCC(=O)N(O)CCCCCN [Deferoxamine, reference compound]")
"1.43 % of control"

###

tested on: SH-SY5Y human neuroblastoma cell line (differentiated phenotype); assay: Viability test, salsolinol-induced model of Parkinson's disease in differentiated SH-SY5Y (Calcein AM); assay type: cell-based; details: 0.1 μM compound with 500 μM Salsolinol, 24 h
QUANTITY_MEASURED: Neuroprotective effect (% of control)

>>> result("COc1ccccc1Cn1cnc2c(N3CCCC3)nc(N3CCCC3)nc21 [Compound 35]")
"1.19 % of control"
>>> result("Oc1ccc(Cn2cnc3c(N4CCCC4)nc(N4CCCC4)nc32)cc1 [Compound 30]")
"10.62 % of control"
>>> result("c1ccc(Cn2cnc3c(N4CCSCC4)nc(N4CCSCC4)nc32)cc1 [Compound 5, 9-benzyl-2,6-dithiomorpholino-9H-purine]")
"7.03 % of control"

###

The following molecules are listed with their measured viability at 24 h, 1 µM values.
assay: Calcein AM viability test on ATRA-differentiated SH-SY5Y cells; format: cell-based, human; settings: human, ATRA-differentiated SH-SY5Y neuroblastoma cells, 1 μM compound, DMSO control = 100%, read-out: % of viability, relative to control
QUANTITY_MEASURED: viability at 24 h, 1 µM (%)

>>> numeric_result("Oc1ccc(Cn2cnc3c(N4CCCC4)nc(N4CCCC4)nc32)cc1")
111
>>> numeric_result("Oc1cccc(Cn2cnc3c(N4CCCC4)nc(N4CCCC4)nc32)c1")
120
>>> numeric_result("c1ccc(Cn2cnc3c(N4CCCCC4)nc(N4CCCC4)nc32)cc1")
120
>>> numeric_result("c1ccc(Cn2cnc3c(N4CCSCC4)nc(N4CCSCC4)nc32)cc1")
126
>>> numeric_result("Clc1cccc(Cl)c1Cn1cnc2c(N3CCCC3)nc(N3CCCC3)nc21")
138
>>> numeric_result("c1ccc(Cn2cnc3c(N4CCCC4)nc(N4CCCCC4)nc32)cc1")
118
>>> numeric_result("c1ccc(Cn2cnc3c(N4CCOCC4)nc(N4CCOCC4)nc32)cc1")
113

Data origin: patent US12319694B2
